target: human CD46 expressed on 293 cells (human) (UniProt P15529); assay: FACS, 293 cells expressing human CD46; EC50 at pH 7.4 over EC50 at pH 6.0
measuredAttribute: Ratio (pH 7.4/6.0)
Form rule: numeric answer, no unit written next to it.

Could you tell me which Ratio (pH 7.4/6.0) is on file for BAP133-2-02-12 (antibody, V domains shown) VH: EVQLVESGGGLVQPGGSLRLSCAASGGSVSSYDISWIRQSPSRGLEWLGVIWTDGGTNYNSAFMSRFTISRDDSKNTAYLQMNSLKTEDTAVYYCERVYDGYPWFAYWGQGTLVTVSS VL: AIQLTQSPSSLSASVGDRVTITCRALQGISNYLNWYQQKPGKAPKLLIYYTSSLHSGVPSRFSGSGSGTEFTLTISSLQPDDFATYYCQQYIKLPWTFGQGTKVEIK ?
3.3
